- Tested target: human BRD4 second bromodomain (BDII_E352-M457) (Homo sapiens (Human), UniProt O60885)
- Experiment notes: TR-FRET bromodomain binding assay, BRD4 second bromodomain
Measured metric: pKi
Schema: pKi number; meaning minus log10 of the concentration expressed in molar units.

- CNS(=O)(=O)Nc1ccc(Oc2c(F)cc(F)cc2F)c(-c2cn(C)c(=O)c3[nH]ccc23)c1 [Example 98]: 8.57

# value lookup — system human BRD4 second bromodomain (BDII_E352-M457) (Homo sapiens (Human), UniProt O60885), readout pKi, item Cn1nc(-c2cc(NS(C)(=O)=O)ccc2Oc2ccccc2)c2cc(C(N)=O)[nH]c2c1=O [Example 78]
8.74

Now consider Cn1cc(-c2cc(CS(C)(=O)=O)cnc2Oc2ccc(F)cc2F)c2cc[nH]c2c1=O [Example 311] and answer again.
8.35

Now consider CCS(=O)(=O)N(Cc1ccccn1)c1ccc(Oc2ccc(F)cc2F)c(-c2cn(C)c(=O)c3[nH]ccc23)c1 [Example 342] and answer again.
7.94

Now consider CCS(=O)(=O)N(CCN(C)C)c1ccc(Oc2ccc(F)cc2F)c(-c2cn(C)c(=O)c3[nH]ccc23)c1 [Example 296] and answer again.
7.00

Now consider Cn1cc(-c2cc(C(=O)N3CCOCC3)ccc2Oc2ccc(F)cc2F)c2cc[nH]c2c1=O [Example 56] and answer again.
8.62

Now consider CC(C)S(=O)(=O)c1ccc(Oc2ccc(F)cc2F)c(-c2cn(C)c(=O)c3[nH]ccc23)c1 [Example 271] and answer again.
8.72

Now consider Cn1cc(-c2cc(CNC(=O)CCC(=O)O)ccc2Oc2ccccc2)c2cc[nH]c2c1=O [Example 42] and answer again.
7.03
